Values from PubChem BioAssay AID1347417

Assay: qHTS Primary assay for Inhibitors of Plasmodium falciparum Dd2 growth in vitro; further: nearly all actives have a fitted effect of over 65% in size
Details: P. falciparum Dd2 growth, SYBR Green, 72 h; series mostly up to 28.9 µM
Excerpt: Malaria, a parasitic disease spread to humans through the bite of a Plasmodium infected Anopheles mosquito, continues to be a global health burden affecting millions of people, with an estimated 228 million cases and 405,000 deaths in 2018. […] Malaria-vivax Assay Protocol: PROTOCOL TABLE (as described by Inglese et al., 2007) SEQUENCE No. (e.g., 1, 2, 3, etc.); […] […] Compound Management for Quantitative High-Throughput Screening. […]
The whole screen tested about 120,000 compounds, of which about 5,300 (4.4%) were called active. Another 22% or so got no clear call; they are omitted. The call rests on the fitted dose curve; in most records, active means well fitted inhibition curve with a large enough effect; inconclusive means small, poorly fitted or top-dose-only effect; inactive means no such curve, though single readings can be large or run the other way. Only a selection was taken, and actives are over-represented in it overall.
Outcome codes: label 1 for active, label 0 for inactive

CCn1ncc(N2CCCC(CC(=O)NCc3ccc(OC)cc3)C2)cc1=O (stereo unspecified)
label 0
Cc1sc2cc(C(=O)N(C)C)[nH]c2c1CN1CCCCC1
label 0
CC(=O)NCC1Cn2cccc2CN1Cc1ccccc1 (stereo unspecified)
label 0
COc1ccc(NC(=O)CSc2nccn2C2CCCC2)cc1OC
label 0
O=C(CSc1nc(=O)[nH]c2c1CCCC2)Nc1cc(C(F)(F)F)ccc1Cl
label 0
O=C(c1ccc(OC(F)(F)F)cc1)N1CCC(n2cc(-c3nc(C4CC4)no3)nn2)C1 (stereo unspecified)
label 0
Cc1cc(C)cc(-n2ccnc2SCC(=O)Nc2nc3ccccc3s2)c1
label 0
C=C(C)COc1ccccc1C(=O)NC(C(=O)O)c1c(C)n[nH]c1C (stereo unspecified)
label 0
O=C(CSc1nccn1-c1ccc(F)cc1)Nc1cccc2ccccc12
label 0
COc1ccc(-c2cc(N3CCCN(C(=O)c4ccc(OC)cc4C)CC3)n[nH]2)cc1
label 0
O=C(CSc1nccn1C1CCCC1)Nc1cc(C(F)(F)F)ccc1Cl
label 1
